tested on: Kasumi; assay: Reduction in cell viability (CellTiter-Glo Luminescent Cell Viability Assay); type: cell-based, human; details: 48 hrs, read-out: Reduction in cell viability after treatment - EC50 (mean of triplicates)
Measured Attribute: EC50 (nM)
Numbers only, in nM.

Look up and report EC50, with Kasumi as system, for O=C1Nc2cc(Br)ccc2/C1=C1/Nc2ccccc2/C1=N\O 1200

---

test system: Jurkat; assay: Reduction in cell viability (CellTiter-Glo Luminescent Cell Viability Assay); type: cell-based, human; conditions: Homo sapiens, 48 hrs, read-out: Reduction in cell viability after treatment - EC50 (mean of triplicates)
Measured Attribute: EC50

>>> recorded_value("Cn1cc(C2=C(c3ccc(Cl)cc3Cl)C(=O)NC2=O)c2ccccc21")
"> 10000 nM"

Query molecule follows.
Report measured EC50; entry is O=C1NC(=O)C(c2cnc3ccccn23)=C1c1cn2c3c(cc(F)cc13)CN(C(=O)N1CCCCC1)CC2 46 nM
